Parameter PET hydrolysis: see the listing below.
protocolDescription: PET hydrolysis, aromatic products released after 48 h (umol product/mg enzyme); higher = more PET depolymerization activity
measurementParameters: substrate: cryPow; 40 °C; pH 5.5
Respond with the number and no other words.

Sample records with PET hydrolysis:
[Q] Which PET hydrolysis is reported for this sequence? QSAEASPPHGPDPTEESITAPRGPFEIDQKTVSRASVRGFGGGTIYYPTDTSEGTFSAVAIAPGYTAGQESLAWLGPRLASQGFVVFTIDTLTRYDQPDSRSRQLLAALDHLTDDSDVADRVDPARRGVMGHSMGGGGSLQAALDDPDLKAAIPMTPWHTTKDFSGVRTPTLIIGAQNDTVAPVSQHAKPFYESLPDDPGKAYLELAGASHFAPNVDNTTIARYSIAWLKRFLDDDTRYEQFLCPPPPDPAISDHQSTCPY [TEP105]
[A] 15.5

[Q] Quick one: MPPPPPPPPPVQTVTVEPGYGFGGGTIYYPQESTGRLPVVAAVPGFTETQEAVAWYGPLLARRGNIVITIDTISPTNAPKTRADQALAAIDYVVTQSAVSDIADASRTAVMGHSMGGGASLFAALKRPTLKAIVPLAPWARTTDFSGVAVPTLIVGCENDGIAAVGTYAEPFYESIPATTPKAYLEMAGGNHYCTNSEDPVIAGYVSAWTDRFLKGDTTASSRLCPPSPVGPISEYRSNCPY [TEP189]
[A] 8

[Q] Quick one: ANPYERGPAPTKASIEATTGYFATAKVTVAKSSVSGFGGGTIYYPTSTTSGTFGAIALVPGFTNVQSAVAWLGPRVASQGFVVFIIDTNSVYDSPDSRGTQLLAALDYLTNTSTVKSRVDATRLGVMGYSMGGGGALSATKTRTSIKASVPMAPYHSTKTWTTVKTPTLIVTGQSDTTAPPASHGLAFYNSLSTSIDKAYMELKGAGHSAPTSANTTIAKYSISWFKRFIDDDTRYDQFLCPNPTDTTISSYKSTCNYS [DP082]
[A] 5

// moving on: another record for PET hydrolysis
[Q] Which PET hydrolysis is reported for this sequence? NPYERGPDPTTASIEASRGSFATSTVTVSRLAVSGFGGGTIYYPTTTTAGTFGAISIAPGFTATQSSMAWLGPRLASQGFVVFTIDTITTSDQPDSRGRQLLASLDYLTQQSSVRSRIDSSRLGVVGHSMGGGGTLEAARSRPSLQAAVPLTGWNLTKNWSTLRVPTLVVGAQSDTIAPVASHSIPFYTSLPSTLDRAYLELRGASHFAPNTSNTTIAKYTLSWLKRFIDNDTRYEQFLCPIPSSSLSISDYRGNCPHNG [ESM167]
[A] 12.5

====

protocolDescription: PET hydrolysis, aromatic products released after 48 h (umol product/mg enzyme); higher = more PET depolymerization activity
measurementParameters: substrate: cryPow; 60 °C; pH 4.5
experimentalEndpoint: PET hydrolysis

[Q] Which PET hydrolysis is reported for this sequence? ADNPYQRGPDPTLASVSAQRGTFATAQVAVPAGDGFGGGMIYYPTDTSQGTFGAVAIVPGYTARFSVEEAWMGHWLASFGFVVIGVETNSTNDFDTARGTQLLAALDYLTQRSSVRDRVDASRQSVVGHSMGGGGALYAAGQRASLKAAVGLAPYKPSGNPTNVRVPTMIISGQNDTVVTPSYATGLYNTLPATTESAYMEFTGADHLFPTRANTLEMRILIPWLKIFVDSDNRYSQFLCPLQDSTGIRGYRSTCPFLPNPTTSPSTTAPTTPPTTPPTTPPTGACSATYRTVNSWPGGFQGEVTVSAGSTPVDGWAVRWTLASGQAVTQVWNGALSVSGSAVTVRNTTYNGSLGANASTTFGFLASGSPTPVSLTCTSP [ESM033]
[A] < 3

[Q] Quick one: AEAADNPYQRGPDPTLASVAATRGPFATAQATVPAGNGFNGGYVYYPTDTSLGTWGAVAIVPGYSALFADEEAWMGPWLASFGFVVLGIETNSRTDGADARATQLLAALDYLTQSSPVRHRVDANRLGVMGHSAGGAGTLMAALRRPSLKSAVGLAPGAPGNSLNMSTTQVPTMLISGQNDGTVTPSYVQGIYNTLPATVEHAWAELAGNDHLSFTRPNPTEMRILIPWLKIFLDNDTRYTQFLCPLADSTGVSRYSATCPLVPPGGPTAPPTVTPPPPTPTTPSPTTPPTSAACTATYRTVNSWSGGFQGEVTVTAGRAAINGWTVRWDLGNGQSISQVWNGTLSTSGSTATVRNVSYNGSLAPAASTGFGFLGTGAPAIPRLTCTSP [ESM037]
[A] < 3

More entries:
[Q] Which PET hydrolysis is reported for this sequence? AANPYERGPDPTDAILEAARGPFETSRTEVPALSVTGFGGGTIYYPATTSAGTFGGVAVAPGYTADRTSLAWLAERLASHGFVVFNIDTLTRLDQPDSRGRQLLAALDYLTQRSSVRGRLDAGRLGVMGHSMGGGGTLEAARDRPSLQAAVPLTPWDLTKIWSGVRVPTMIVGAEADTIAPVASHAEPFYQSLPSSPGKAYLELNNATHFAPNVPDTTIGKYVVAWMKRFVDDDTRYTRFLCPGPSGGLTVEEYRSTCPFS [TEP194]
[A] 3.5

[Q] Quick one: ADNPYQRGPDPTRTSVATERGPFANTSVSVPSGYGFNGGRIYYPTDTSQGTFGAIAISPGYTALFSAELAWMGPWLASHGFVVIGIETNSRNDFDTARGTQLLAALDYLTQQSPVRDRIDPNRLAVSGHSMGGGGALSAAMRRSSLKAVVGIAPYSPSSNLANDRVPTMIFSGQADTVVTPSYAMGLYNSIPAGTKSAYLEVAGGDHGFMVGRSNPVLIRTMLPFLKIFIDNDARYSQFLCPLLDNSGVVTYRSTCPFLPTTPTTPPPTG [ESM065]
[A] < 3

[Q] Quick one: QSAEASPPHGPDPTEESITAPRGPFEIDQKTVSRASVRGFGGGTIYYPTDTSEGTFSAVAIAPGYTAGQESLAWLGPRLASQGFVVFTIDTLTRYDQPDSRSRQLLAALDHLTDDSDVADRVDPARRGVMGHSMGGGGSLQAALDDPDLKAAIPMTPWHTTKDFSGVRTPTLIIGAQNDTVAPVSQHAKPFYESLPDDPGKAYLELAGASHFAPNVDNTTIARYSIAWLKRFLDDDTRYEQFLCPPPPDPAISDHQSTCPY [TEP105]
[A] < 3

[Q] Quick one: ATTSFQRGPAPTTASIQATSGPFATSQTTVSRISVTGFGGGDIYYPTSTSSGTFGAVAIAPGYTALRSSMAWLAPRIASQGFVVFNIDTLTTSDQPATRGTELLAALDYLTTRSTVRTRIDTTRLAVMGHSMGGGGTLEAAKSRPSLQAAIPLTPWDLNKSFAGLAVPTLIIGAQADTVAPVSQHAKPFFTSLPSGLDKAYLELAGASHFAPNTSNTTIASISIAWLKRFVDDDTRYDQFLCPGPTVGTAVSQFTTNCPHIS [ESM156]
[A] < 3

[Q] Quick one: QPTLESLGNPGPYQVAYYDQLPEVDEYGAATLYFPANRGTDFGGVAIAPGFIEQQENIEWWGRHLASYGFAVLVLDTNNPRDDPQVRSEALLAALDVIRGEGARSGSPIRGKILNDRMAVMGHSMGGGGTLLAANRASDQLKAIIPFTPWLPNADFSSVAVPTLVLAGEVDRIASVAEHAWPHFQTLPEGIPRMYVEIAGGNHFIANSTTDQERLNPNIDVHDLVGALGVAWLKYFVDGDEDYRDLIYGELPAEQRARLSRFEFVQ [TEP107]
[A] < 3

[Q] Quick one: ADNPYERGPAPTEASVEAPRGPYAVSETTVSPLAVTGFGGGTVYYPTSTADGTFGAIAVSPGYTGTQSSIAWLGPRLASQGFVVFTIDTLTTLDQPDSRGRQLLAALDYLTQKSSVRGRIDSTRLGVMGHSMGGGGSLEAAKSRPSLQAAIPLTPWNLDKTWPEVATPTLIFGADGDTIAPVATHAEPFYTSLPASLDRAYLELNGATHFTPNTSNTTIAKYSIAWLKRFIDDDTRYEQFLCPLPRPGLTIEEYRGNCPHTS [TEP117]
[A] < 3

[Q] Quick one: APPARVAALATTAYQRGPAPTLSGVRAALGPFSYSTASVSAAATGYTFGGGTVYYPDDTSQGTFGGIAVTPGYTGTEGSIAWLGPRLASQGFVVITIATKSLYDQPTARGQQLLAALDYLKTYSPAAVRQRLDPQRLAVSGHSMGGGGALYAVWSRPSLKAAVPLAPYHTIKNWSAITVPTLIEAGTADTVTPVGTFAEPIYQSLTGASERAYAEVAGANHLTFTAENPLIGGLEVAWMKRFVDDDARYDQFLCPAPTDPGLTEYRDSCPTS [TEP101]
[A] < 3

[Q] Quick one: LNPYQRGPNPTDAILEASSGPYATSSISVPSIVSGFGGGRIYYPTTTADGTFGGIAISPGFTATWSSLSWLGPRLASHGFVVIGIETNTIYDQPTSRGQQLLAALDYLVNTSSVRTRVDSSRLAVAGHSMGGGGTLWAANSRPSLQAAIPLAPWNTDKSWSGVRVPTLIVGGQSDTVAPVATHSIPFYTSIPAASEKAYLELRSASHFFPQTVNTTVAVSMVSWLKRYVDDDTRYDPWLCPGPSGLSVSDYRDTCPA [TEP178]
[A] < 3
